Exercise: for every item that follows, state its recorded phenotypic distance.
- System: E57 (patient-derived glioblastoma stem cells of mesenchymal subtype);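 further: cell Painting imaging in 384-well plates, CellProfiler features reduced to at least 20 principal components, Euclidean distance versus same-plate DMSO vehicle wells (0.1% v/v), median over six images per well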
- assay: phenotypic distance (Euclidean, principal components) from DMSO controls (arbitrary units); higher = stronger morphological change
- test.context: 111.1 nM; exposure time: 72 h
Where a name gives a salt, the structure may show the parent alone.
Write the number on its own, no unit after it.

Sample CCn1cc(C(=O)O)c(=O)c2cc(F)c(N3CCNCC3)nc21 [Enoxacin] ; phenotypic distance observed: 0.821

Sample C[C@@H]1C[C@@H]([C@H](O)CC2CC(=O)NC(=O)C2)C(=O)[C@@H](C)C1 [Cycloheximide] ; phenotypic distance observed: 2.56

Sample CC(=O)OC[C@H]1O[C@@H]([S-])[C@H](OC(C)=O)[C@@H](OC(C)=O)[C@@H]1OC(C)=O.CCP(CC)CC.[Au+] [Auranofin] ; phenotypic distance observed: 0.677

Sample CCC(C)(C)c1ccc(CC(C)CN2C[C@@H](C)O[C@@H](C)C2)cc1 (stereo not given in full) [Amorolfine hydrochloride] ; phenotypic distance observed: 0.552

Sample Cc1cccn2c(=O)c(-c3nnn[nH]3)cnc12 [Pemirolast potassium] ; phenotypic distance observed: 0.618
